Test system: […]
Test: Macrocyclization reaction, final product ratios by LC-ESI MS ion counts
Assay type: biochemical
Details: 100 μM peptide, 50 μM enzyme, 120 h at 37° C.
Procedure: For macrocyclization reactions comparing final product ratios after substrate depletion, 100 μM peptide (VGAGIGFPAYDG) (SEQ ID NO: 68) was incubated with 50 μM enzyme in 150 mM NaCl, 10 mM HEPES pH 8, 1 mM TCEP for 120 h at 37° C. Samples were analyzed by ESI or MALDI MS (LCT, Micromass or 4800 MALDI TOF/TOF Analyser, ABSciex). LC-MS was performed using a Phenomenex Sunfire C18 column (4.6 mm×150 mm). Solvent A was H2O containing 0.1% formic acid and solvent B was MeOH containing 0.1% formic acid. […]

- Molecule: "PatGmacΔ2 (protein) GEDEIESAGVSASEVESSATKQKVALHPHDLDERIPGLADLHNQTLGDPQITIVIIDGDPDYTLSCFEGAEVSKVFPYWHEPAEPILNDHACHVTSTIVGQEHSPVFGIAPNCRVINMPQDAVIRGNYDDVMSPLNLARAIDLALELGANIIHCAFCRPTQTSEGEEILVQAIKKCQDNNVLIVSPTGNNSNESWCLPAVLPGTLAVGAAKVDGTPCHFSNWGGNNTKEGILAPGEEILGAQPCTEEPVRLTGTSMAAPVMTGISALLMSLQVQQGKPVDAEAVRTALLKTAIPCDPEVVEEPERCLRGFVNIPGAMKVLFGQ"
  Value qualifier: "<"
  Unprocessed ion count (%) (M + H = 1123): 1
- Molecule: "PatGmac K594D (protein) GEDEIESAGVSASEVESSATKQKVALHPHDLDERIPGLADLHNQTLGDPQITIVIIDGDPDYTLSCFEGAEVSKVFPYWHEPAEPITPEDYAAFQSIRDQGLDGKEKEEALEAVIPDTKDRIVLNDHACHVTSTIVGQEHSPVFGIAPNCRVINMPQDAVIRGNYDDVMSPLNLARAIDLALELGANIIHCAFCRPTQTSEGEEILVQAIKKCQDNNVLIVSPTGNNSNESWCLPAVLPGTLAVGAAKVDGTPCHFSNWGGNNTKEGILAPGEEILGAQPCTEEPVRLTGTSMAAPVMTGISALLMSLQVQQGKPVDAEAVRTALLKTAIPCDPEVVEEPERCLRGFVNIPGAMKVLFGQ"
  Value qualifier: "="
  Unprocessed ion count (%) (M + H = 1123): 0
- Molecule: "PatGmacΔ1 (protein) GEDEIESAGVSASEVESSATKQKVALHPHDLDERIPGLADLHNQTLGDPQITIVIIDGDPDYTLSCFEGAEVSKVFPYWHEPAEPITKDRIVLNDHACHVTSTIVGQEHSPVFGIAPNCRVINMPQDAVIRGNYDDVMSPLNLARAIDLALELGANIIHCAFCRPTQTSEGEEILVQAIKKCQDNNVLIVSPTGNNSNESWCLPAVLPGTLAVGAAKVDGTPCHFSNWGGNNTKEGILAPGEEILGAQPCTEEPVRLTGTSMAAPVMTGISALLMSLQVQQGKPVDAEAVRTALLKTAIPCDPEVVEEPERCLRGFVNIPGAMKVLFGQ"
  Value qualifier: "="
  Unprocessed ion count (%) (M + H = 1123): 8
- Molecule: "PatGmac R589D K594D K598D (protein) GEDEIESAGVSASEVESSATKQKVALHPHDLDERIPGLADLHNQTLGDPQITIVIIDGDPDYTLSCFEGAEVSKVFPYWHEPAEPITPEDYAAFQSIDDQGLDGKEDEEALEAVIPDTKDRIVLNDHACHVTSTIVGQEHSPVFGIAPNCRVINMPQDAVIRGNYDDVMSPLNLARAIDLALELGANIIHCAFCRPTQTSEGEEILVQAIKKCQDNNVLIVSPTGNNSNESWCLPAVLPGTLAVGAAKVDGTPCHFSNWGGNNTKEGILAPGEEILGAQPCTEEPVRLTGTSMAAPVMTGISALLMSLQVQQGKPVDAEAVRTALLKTAIPCDPEVVEEPERCLRGFVNIPGAMKVLFGQ"
  Value qualifier: "="
  Unprocessed ion count (%) (M + H = 1123): 94
- Molecule: "PatGmac K598D (protein) GEDEIESAGVSASEVESSATKQKVALHPHDLDERIPGLADLHNQTLGDPQITIVIIDGDPDYTLSCFEGAEVSKVFPYWHEPAEPITPEDYAAFQSIRDQGLKGKEDEEALEAVIPDTKDRIVLNDHACHVTSTIVGQEHSPVFGIAPNCRVINMPQDAVIRGNYDDVMSPLNLARAIDLALELGANIIHCAFCRPTQTSEGEEILVQAIKKCQDNNVLIVSPTGNNSNESWCLPAVLPGTLAVGAAKVDGTPCHFSNWGGNNTKEGILAPGEEILGAQPCTEEPVRLTGTSMAAPVMTGISALLMSLQVQQGKPVDAEAVRTALLKTAIPCDPEVVEEPERCLRGFVNIPGAMKVLFGQ"
  Value qualifier: "="
  Unprocessed ion count (%) (M + H = 1123): 0
